Items are presented alongside their recorded IC50.
Target: Human indoleamine 2,3-dioxygenasae (IDO) (Homo sapiens (Human), UniProt P14902)
Sequence (P14902 whole entry): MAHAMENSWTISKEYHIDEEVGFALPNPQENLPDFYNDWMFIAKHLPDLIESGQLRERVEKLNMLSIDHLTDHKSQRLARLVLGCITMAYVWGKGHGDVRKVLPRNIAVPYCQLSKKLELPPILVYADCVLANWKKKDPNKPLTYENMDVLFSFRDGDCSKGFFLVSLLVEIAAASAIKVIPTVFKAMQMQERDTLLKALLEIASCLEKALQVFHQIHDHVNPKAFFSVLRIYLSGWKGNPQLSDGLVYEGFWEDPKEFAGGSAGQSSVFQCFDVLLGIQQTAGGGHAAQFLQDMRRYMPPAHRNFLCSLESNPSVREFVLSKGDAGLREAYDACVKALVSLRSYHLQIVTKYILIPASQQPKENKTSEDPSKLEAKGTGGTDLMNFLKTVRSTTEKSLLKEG
Assay: Human indoleamine 2,3-dioxygenasae (IDO) enzyme assay
Format: biochemical
Conditions: read-out: IDO IC50
Readout Name: IC50

[
  {
    "Substance Smiles": "Cc1cc(NC(=NO)c2nonc2NCCNS(C)(=O)=O)ccc1F",
    "Measurement Target": "Human indoleamine 2,3-dioxygenasae (IDO) (Homo sapiens (Human), UniProt P14902)",
    "Observed Value": "< 500 nM"
  },
  {
    "Substance Smiles": "NS(=O)(=O)NCCCNc1nonc1C(=NO)Nc1ccc(F)c(Br)c1",
    "Measurement Target": "Human indoleamine 2,3-dioxygenasae (IDO) (Homo sapiens (Human), UniProt P14902)",
    "Observed Value": "< 100 nM"
  },
  {
    "Substance Smiles": "NS(=O)(=O)NCCNc1nonc1C(=NO)Nc1cccc(C(F)(F)F)c1",
    "Measurement Target": "Human indoleamine 2,3-dioxygenasae (IDO) (Homo sapiens (Human), UniProt P14902)",
    "Observed Value": "< 500 nM"
  },
  {
    "Substance Smiles": "NS(=O)(=O)NCCCNc1nonc1C(=NO)Nc1cccc(C(F)(F)F)c1",
    "Measurement Target": "Human indoleamine 2,3-dioxygenasae (IDO) (Homo sapiens (Human), UniProt P14902)",
    "Observed Value": "< 200 nM"
  },
  {
    "Substance Smiles": "CS(=O)(=O)NCCCNc1nonc1C(=NO)Nc1cccc(C(F)(F)F)c1",
    "Measurement Target": "Human indoleamine 2,3-dioxygenasae (IDO) (Homo sapiens (Human), UniProt P14902)",
    "Observed Value": "< 200 nM"
  },
  {
    "Substance Smiles": "CS(=O)(=O)NCCNc1nonc1C(=NO)Nc1cccc(C(F)(F)F)c1",
    "Measurement Target": "Human indoleamine 2,3-dioxygenasae (IDO) (Homo sapiens (Human), UniProt P14902)",
    "Observed Value": "< 200 nM"
  },
  {
    "Substance Smiles": "NS(=O)(=O)NCCCNc1nonc1C(=NO)Nc1ccc(F)c(Cl)c1",
    "Measurement Target": "Human indoleamine 2,3-dioxygenasae (IDO) (Homo sapiens (Human), UniProt P14902)",
    "Observed Value": "< 200 nM"
  },
  {
    "Substance Smiles": "CS(=O)(=O)NCCCNc1nonc1C(=NO)Nc1ccc(F)c(Br)c1",
    "Measurement Target": "Human indoleamine 2,3-dioxygenasae (IDO) (Homo sapiens (Human), UniProt P14902)",
    "Observed Value": "< 100 nM"
  },
  {
    "Substance Smiles": "NS(=O)(=O)NCCNc1nonc1C(=NO)NCc1cc(Cl)co1",
    "Measurement Target": "Human indoleamine 2,3-dioxygenasae (IDO) (Homo sapiens (Human), UniProt P14902)",
    "Observed Value": "< 750 nM"
  },
  {
    "Substance Smiles": "N#Cc1cc(NC(=NO)c2nonc2NCCNS(N)(=O)=O)ccc1F",
    "Measurement Target": "Human indoleamine 2,3-dioxygenasae (IDO) (Homo sapiens (Human), UniProt P14902)",
    "Observed Value": "< 750 nM"
  },
  {
    "Substance Smiles": "CS(=O)(=O)NCCNc1nonc1C(=NO)Nc1ccc(F)c(C#N)c1",
    "Measurement Target": "Human indoleamine 2,3-dioxygenasae (IDO) (Homo sapiens (Human), UniProt P14902)",
    "Observed Value": "< 500 nM"
  },
  {
    "Substance Smiles": "CS(=O)(=O)NCCNc1nonc1C(=NO)Nc1ccc(F)c(Cl)c1",
    "Measurement Target": "Human indoleamine 2,3-dioxygenasae (IDO) (Homo sapiens (Human), UniProt P14902)",
    "Observed Value": "< 200 nM"
  }
]

Ref: patent US10034939B2
